- experimentalSystem: Metabotropic glutamate receptor 4 (Homo sapiens)
- Sequence (Q14833 whole entry): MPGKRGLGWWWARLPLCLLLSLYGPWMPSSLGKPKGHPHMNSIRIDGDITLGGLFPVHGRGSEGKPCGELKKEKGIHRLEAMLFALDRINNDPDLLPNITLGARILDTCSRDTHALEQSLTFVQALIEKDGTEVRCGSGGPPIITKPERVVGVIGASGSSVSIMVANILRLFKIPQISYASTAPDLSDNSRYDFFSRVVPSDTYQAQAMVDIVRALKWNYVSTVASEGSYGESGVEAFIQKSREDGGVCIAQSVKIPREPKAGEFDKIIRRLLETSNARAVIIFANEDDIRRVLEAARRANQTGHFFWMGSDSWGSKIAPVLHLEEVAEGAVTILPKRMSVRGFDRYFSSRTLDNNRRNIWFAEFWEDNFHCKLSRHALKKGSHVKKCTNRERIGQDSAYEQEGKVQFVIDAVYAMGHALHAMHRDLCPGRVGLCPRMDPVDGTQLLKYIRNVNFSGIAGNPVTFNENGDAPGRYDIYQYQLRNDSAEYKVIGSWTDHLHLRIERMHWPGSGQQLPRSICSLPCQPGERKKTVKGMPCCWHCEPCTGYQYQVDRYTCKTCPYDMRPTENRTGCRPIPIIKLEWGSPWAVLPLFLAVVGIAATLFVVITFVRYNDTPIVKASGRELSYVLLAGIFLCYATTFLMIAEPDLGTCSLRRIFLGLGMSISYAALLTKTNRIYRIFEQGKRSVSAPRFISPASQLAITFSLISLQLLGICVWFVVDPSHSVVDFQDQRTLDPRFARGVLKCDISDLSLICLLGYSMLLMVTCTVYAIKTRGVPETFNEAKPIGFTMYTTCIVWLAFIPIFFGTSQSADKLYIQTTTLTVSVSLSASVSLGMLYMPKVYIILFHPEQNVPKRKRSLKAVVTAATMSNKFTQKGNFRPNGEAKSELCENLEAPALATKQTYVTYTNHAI
- testProtocol: Positive allosteric modulation of recombinant human mGlu4 receptor expressed in HEK293 cells co-expressing chimeric G protein assessed as increase in EC20 glutamate-induced […]
- Assay type: functional, cell-based
readoutType: EC50 (nM)

smilesstructure=O/N=c1\cc(-c2cc3cccn3cn2)oc2ccc(OCCN3CCOCC3)cc12 readouttype=EC50 measurementunit=nM experimentalvalue=70

----------
- testProtocol: Ratio of drug level in Sprague-Dawley rat brain to plasma at 30 mg/kg, ip after 30 mins post dose administered as single dose by LC-MS/MS analysis
- Assay type: ADME, organism-based
- testConditions: read-out: BPR
readoutType: Kp at 0.5 h

smilesstructure=O/N=c1\cc(-c2cc3cccn3cn2)oc2ccc(OCCN3CCOCC3)cc12 readouttype="Kp at 0.5 h" experimentalvalue=3.1
